Quick list: pIC50 per entry.
biological target: Adenomatous polyposis coli protein (Homo sapiens); experiment: Binding affinity to APC protein (303 to 739 residues) (unknown origin) incubated for 60 mins followed by probe addition and measured after 60 mins by competitive fluorescence polarization assay
*1 amine or outer side, *2 acyl side, *3 side chain or, on linkers, in order; H or OH if unused. Where a SMILES comes first, the peptide text is derived from it. [ ]: non-standard residue; d: D form. The star is where a group is joined. X4 = O=C(C1(N[*:1])C[C@@H]2CC[C@H]1C2)[*:2]; Ala(4-thiazolyl) = N[C@@H](Cc1cscn1)C(=O)O; Met(O) = CS(=O)CC[C@H](N)C(=O)O; Aic = NC1(C(=O)O)Cc2ccccc2C1; Cbz = O=C(OCc1ccccc1)*
Scale: pIC50 equals -log10([C]), with [C] in mol/L.

Examples with answers:
molecule	measured_number
C[C@H](NC(=O)OCc1ccccc1)C(=O)NCC(=O)N[C@@H](CCC(=O)O)C(=O)N[C@@H](CO)C(=O)NC1(C(=O)N[C@@H](Cc2ccc(O)cc2)C(=O)N[C@@H](CCC(=O)O)C(N)=O)C[C@@H]2CC[C@H]1C2 (some centres undefined) (Cbz-AGES[X4]YE-NH2)	3.89
C[C@H](NC(=O)OCc1ccccc1)C(=O)NCC(=O)N[C@@H](CCC(=O)O)C(=O)N[C@@H](CO)C(=O)N[C@@H](Cc1cscn1)C(=O)N[C@@H](Cc1ccc(O)cc1)C(=O)N[C@@H](CCC(=O)O)C(N)=O (Cbz-AGES[Ala(4-thiazolyl)]YE-NH2)	4.79

So, C[C@H](NC(=O)OCc1ccccc1)C(=O)NCC(=O)N[C@@H](CCC(=O)O)C(=O)N[C@@H](CO)C(=O)N[C@@H](CC[S+](C)[O-])C(=O)N[C@@H](Cc1ccc(O)cc1)C(=O)N[C@@H](CCC(=O)O)C(N)=O (some centres undefined) (Cbz-AGES[Met(O)]YE-NH2) ? Its pIC50 was 4.86

So, C[C@H](NC(=O)OCc1ccccc1)C(=O)NCC(=O)N[C@@H](CCC(=O)O)C(=O)N[C@@H](CO)C(=O)NC1(C(=O)N[C@@H](Cc2ccc(O)cc2)C(=O)N[C@@H](CCC(=O)O)C(N)=O)Cc2ccccc2C1 (Cbz-AGES[Aic]YE-NH2) ? Its pIC50 was 4.59

---

molecular target: Adenomatous polyposis coli protein (Homo sapiens, UniProt P25054)
Sequence (P25054 whole entry, the tested form may be a part): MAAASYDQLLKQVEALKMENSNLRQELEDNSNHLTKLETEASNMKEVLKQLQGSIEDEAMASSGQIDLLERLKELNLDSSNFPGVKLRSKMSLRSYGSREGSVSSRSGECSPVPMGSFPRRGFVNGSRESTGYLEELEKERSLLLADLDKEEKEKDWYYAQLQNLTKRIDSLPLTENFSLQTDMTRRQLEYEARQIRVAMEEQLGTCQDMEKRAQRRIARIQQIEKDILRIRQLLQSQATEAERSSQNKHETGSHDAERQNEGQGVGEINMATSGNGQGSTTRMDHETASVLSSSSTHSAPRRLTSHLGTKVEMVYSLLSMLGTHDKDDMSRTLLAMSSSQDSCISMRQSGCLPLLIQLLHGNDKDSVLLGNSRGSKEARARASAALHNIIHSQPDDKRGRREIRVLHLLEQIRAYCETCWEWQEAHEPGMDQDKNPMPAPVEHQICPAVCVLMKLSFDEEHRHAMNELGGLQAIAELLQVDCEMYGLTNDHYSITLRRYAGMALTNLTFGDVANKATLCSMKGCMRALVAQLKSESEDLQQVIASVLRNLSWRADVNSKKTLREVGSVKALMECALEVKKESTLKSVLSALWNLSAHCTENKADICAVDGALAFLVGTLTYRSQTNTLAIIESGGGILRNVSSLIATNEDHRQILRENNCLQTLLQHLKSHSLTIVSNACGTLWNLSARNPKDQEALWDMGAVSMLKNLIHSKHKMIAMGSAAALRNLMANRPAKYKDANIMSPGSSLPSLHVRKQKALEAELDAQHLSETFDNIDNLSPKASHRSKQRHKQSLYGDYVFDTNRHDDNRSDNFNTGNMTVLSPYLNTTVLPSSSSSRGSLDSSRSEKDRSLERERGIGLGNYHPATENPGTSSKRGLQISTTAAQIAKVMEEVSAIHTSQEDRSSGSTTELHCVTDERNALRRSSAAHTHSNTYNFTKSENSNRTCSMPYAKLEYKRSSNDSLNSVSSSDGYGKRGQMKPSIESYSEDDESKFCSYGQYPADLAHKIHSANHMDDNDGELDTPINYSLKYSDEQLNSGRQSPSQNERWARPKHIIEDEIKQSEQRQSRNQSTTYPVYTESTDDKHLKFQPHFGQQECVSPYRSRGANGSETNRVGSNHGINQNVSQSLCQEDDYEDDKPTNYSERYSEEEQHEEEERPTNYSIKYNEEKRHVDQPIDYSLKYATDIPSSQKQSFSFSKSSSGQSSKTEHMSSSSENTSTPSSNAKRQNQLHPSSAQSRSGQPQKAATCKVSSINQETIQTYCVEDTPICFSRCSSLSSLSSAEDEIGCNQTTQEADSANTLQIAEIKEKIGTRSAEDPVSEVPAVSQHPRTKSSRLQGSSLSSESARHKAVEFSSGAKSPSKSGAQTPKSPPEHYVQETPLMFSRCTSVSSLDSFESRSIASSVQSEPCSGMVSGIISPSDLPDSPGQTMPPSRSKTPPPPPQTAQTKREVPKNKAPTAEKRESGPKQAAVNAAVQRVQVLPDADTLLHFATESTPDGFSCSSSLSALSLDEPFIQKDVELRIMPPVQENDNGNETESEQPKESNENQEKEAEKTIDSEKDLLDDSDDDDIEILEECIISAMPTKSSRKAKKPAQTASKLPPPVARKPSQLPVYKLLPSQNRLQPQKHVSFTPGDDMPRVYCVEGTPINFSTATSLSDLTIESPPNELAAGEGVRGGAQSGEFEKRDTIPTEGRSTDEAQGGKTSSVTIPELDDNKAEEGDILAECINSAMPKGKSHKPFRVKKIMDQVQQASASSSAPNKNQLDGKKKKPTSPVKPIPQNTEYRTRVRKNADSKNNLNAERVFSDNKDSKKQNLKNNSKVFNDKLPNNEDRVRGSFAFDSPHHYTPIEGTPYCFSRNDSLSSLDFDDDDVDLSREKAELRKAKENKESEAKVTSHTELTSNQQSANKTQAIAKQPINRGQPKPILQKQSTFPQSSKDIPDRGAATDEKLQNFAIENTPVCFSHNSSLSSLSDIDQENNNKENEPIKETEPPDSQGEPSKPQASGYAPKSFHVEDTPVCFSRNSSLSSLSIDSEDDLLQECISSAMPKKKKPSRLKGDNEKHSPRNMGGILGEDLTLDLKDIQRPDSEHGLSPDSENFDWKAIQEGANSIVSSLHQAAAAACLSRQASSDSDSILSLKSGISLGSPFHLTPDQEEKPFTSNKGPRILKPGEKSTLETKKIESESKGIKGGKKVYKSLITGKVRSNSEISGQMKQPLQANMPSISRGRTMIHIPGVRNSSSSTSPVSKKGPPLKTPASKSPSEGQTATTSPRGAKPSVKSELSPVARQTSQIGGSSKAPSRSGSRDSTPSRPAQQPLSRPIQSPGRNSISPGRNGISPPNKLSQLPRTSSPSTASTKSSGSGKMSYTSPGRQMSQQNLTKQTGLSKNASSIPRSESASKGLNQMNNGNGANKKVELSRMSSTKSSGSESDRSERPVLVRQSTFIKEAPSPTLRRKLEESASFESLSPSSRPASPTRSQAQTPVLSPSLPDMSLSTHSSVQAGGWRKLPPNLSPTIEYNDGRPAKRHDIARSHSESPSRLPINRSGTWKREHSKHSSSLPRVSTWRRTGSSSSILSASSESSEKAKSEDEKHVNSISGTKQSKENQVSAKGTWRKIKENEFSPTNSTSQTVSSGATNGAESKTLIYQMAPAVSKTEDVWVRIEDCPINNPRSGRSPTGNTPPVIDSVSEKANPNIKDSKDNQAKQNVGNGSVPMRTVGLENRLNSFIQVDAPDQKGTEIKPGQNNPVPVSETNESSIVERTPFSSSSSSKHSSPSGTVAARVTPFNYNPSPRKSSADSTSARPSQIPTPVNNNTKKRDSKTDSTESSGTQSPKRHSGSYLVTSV
*1 amine or outer side, *2 acyl side, *3 side chain or, on linkers, in order; H or OH if unused. Where a SMILES comes first, the peptide text is derived from it. [ ]: non-standard residue; d: D form. The star is where a group is joined. X1 = O=C([C@H](Cc1ccc(Br)s1)N[*:1])[*:2]; Ala(2-furyl) = N[C@@H](Cc1ccco1)C(=O)O; Ala(cHept) = N[C@@H](CC1CCCCCC1)C(=O)O; Gly(cPent) = N[C@H](C(=O)O)C1CCCC1; 2Thi = N[C@@H](Cc1cccs1)C(=O)O; Cba = N[C@@H](CC1CCC1)C(=O)O; Chg = N[C@H](C(=O)O)C1CCCCC1; Tle = CC(C)(C)[C@H](N)C(=O)O; hLeu = CC(C)CC[C@H](N)C(=O)O; Ac8c = NC1(C(=O)O)CCCCCCC1; Pra = C#CC[C@H](N)C(=O)O; Cbz = O=C(OCc1ccccc1)*
Quick list: log10(IC50) per entry.
On a log10 scale: recorded IC50, unit µM.

compound	measured_number
C[C@H](NC(=O)OCc1ccccc1)C(=O)NCC(=O)N[C@@H](CCC(=O)O)C(=O)N[C@@H](CO)C(=O)N[C@@H](Cc1ccc(Br)s1)C(=O)N[C@@H](Cc1ccc(O)cc1)C(=O)N[C@@H](CCC(=O)O)C(N)=O (Cbz-AGES[X1]YE-NH2)	0.70
C[C@H](NC(=O)OCc1ccccc1)C(=O)NCC(=O)N[C@@H](CCC(=O)O)C(=O)N[C@@H](CO)C(=O)N[C@@H](Cc1cccs1)C(=O)N[C@@H](Cc1ccc(O)cc1)C(=O)N[C@@H](CCC(=O)O)C(N)=O (Cbz-AGES[2Thi]YE-NH2)	0.60
C[C@H](NC(=O)OCc1ccccc1)C(=O)NCC(=O)N[C@@H](CCC(=O)O)C(=O)N[C@@H](CO)C(=O)N[C@@H](Cc1ccc(O)cc1)C(=O)N[C@@H](Cc1ccc(O)cc1)C(=O)N[C@@H](CCC(=O)O)C(N)=O (Cbz-AGESYYE-NH2)	0.71
C[C@H](NC(=O)OCc1ccccc1)C(=O)NCC(=O)N[C@@H](CCC(=O)O)C(=O)N[C@@H](CO)C(=O)N[C@@H](CC1CCC1)C(=O)N[C@@H](Cc1ccc(O)cc1)C(=O)N[C@@H](CCC(=O)O)C(N)=O (Cbz-AGES[Cba]YE-NH2)	0.18
CC(C)CC[C@H](NC(=O)[C@H](CO)NC(=O)[C@H](CCC(=O)O)NC(=O)CNC(=O)[C@H](C)NC(=O)OCc1ccccc1)C(=O)N[C@@H](Cc1ccc(O)cc1)C(=O)N[C@@H](CCC(=O)O)C(N)=O (Cbz-AGES[hLeu]YE-NH2)	-0.08
CC(C)C[C@H](NC(=O)[C@H](CC(N)=O)NC(=O)[C@H](CCC(=O)O)NC(=O)CNC(=O)[C@H](C)NC(=O)OCc1ccccc1)C(=O)N[C@@H](Cc1ccc(O)cc1)C(=O)N[C@@H](CCC(=O)O)C(N)=O (Cbz-AGENLYE-NH2)	0.72
C[C@H](NC(=O)OCc1ccccc1)C(=O)NCC(=O)N[C@@H](CCC(=O)O)C(=O)N[C@@H](CO)C(=O)NC1(C(=O)N[C@@H](Cc2ccc(O)cc2)C(=O)N[C@@H](CCC(=O)O)C(N)=O)CCCCCCC1 (Cbz-AGES[Ac8c]YE-NH2)	1.01
C[C@H](NC(=O)OCc1ccccc1)C(=O)NCC(=O)N[C@@H](CCC(=O)O)C(=O)N[C@@H](CO)C(=O)N[C@H](C(=O)N[C@@H](Cc1ccc(O)cc1)C(=O)N[C@@H](CCC(=O)O)C(N)=O)C1CCCCC1 (Cbz-AGES[Chg]YE-NH2)	0.47
C#CC[C@H](NC(=O)[C@H](CO)NC(=O)[C@H](CCC(=O)O)NC(=O)CNC(=O)[C@H](C)NC(=O)OCc1ccccc1)C(=O)N[C@@H](Cc1ccc(O)cc1)C(=O)N[C@@H](CCC(=O)O)C(N)=O (Cbz-AGES[Pra]YE-NH2)	1.49
CC(C)[C@H](NC(=O)[C@H](CO)NC(=O)[C@H](CCC(=O)O)NC(=O)CNC(=O)[C@H](C)NC(=O)OCc1ccccc1)C(=O)N[C@@H](Cc1ccc(O)cc1)C(=O)N[C@@H](CCC(=O)O)C(N)=O (Cbz-AGESVYE-NH2)	1.09

So, C[C@H](NC(=O)OCc1ccccc1)C(=O)NCC(=O)N[C@@H](CCC(=O)O)C(=O)N[C@@H](CO)C(=O)N[C@@H](CC1CCCCCC1)C(=O)N[C@@H](Cc1ccc(O)cc1)C(=O)N[C@@H](CCC(=O)O)C(N)=O (Cbz-AGES[Ala(cHept)]YE-NH2) ? Its log10(IC50) was 0.29

So, C[C@H](NC(=O)OCc1ccccc1)C(=O)NCC(=O)N[C@@H](CCC(=O)O)C(=O)N[C@@H](CO)C(=O)N[C@@H](Cc1ccco1)C(=O)N[C@@H](Cc1ccc(O)cc1)C(=O)N[C@@H](CCC(=O)O)C(N)=O (Cbz-AGES[Ala(2-furyl)]YE-NH2) ? Its log10(IC50) was 0.84

So, C[C@H](NC(=O)OCc1ccccc1)C(=O)NCC(=O)N[C@@H](CCC(=O)O)C(=O)N[C@@H](CO)C(=O)N[C@H](C(=O)N[C@@H](Cc1ccc(O)cc1)C(=O)N[C@@H](CCC(=O)O)C(N)=O)C(C)(C)C (Cbz-AGES[Tle]YE-NH2) ? Its log10(IC50) was 1.50

So, C[C@H](NC(=O)OCc1ccccc1)C(=O)NCC(=O)N[C@@H](CCC(=O)O)C(=O)N[C@@H](CO)C(=O)N[C@H](C(=O)N[C@@H](Cc1ccc(O)cc1)C(=O)N[C@@H](CCC(=O)O)C(N)=O)C1CCCC1 (Cbz-AGES[Gly(cPent)]YE-NH2) ? Its log10(IC50) was 0.61

So, CC(C)C[C@H](NC(=O)[C@H](Cc1ccc(O)cc1)NC(=O)[C@H](CCC(=O)O)NC(=O)CNC(=O)[C@H](C)NC(=O)OCc1ccccc1)C(=O)N[C@@H](Cc1ccc(O)cc1)C(=O)N[C@@H](CCC(=O)O)C(N)=O (Cbz-AGEYLYE-NH2) ? Its log10(IC50) was 0.74

So, C[C@H](NC(=O)OCc1ccccc1)C(=O)NCC(=O)N[C@@H](CCC(=O)O)C(=O)N[C@@H](CO)C(=O)NCC(=O)N[C@@H](Cc1ccc(O)cc1)C(=O)N[C@@H](CCC(=O)O)C(N)=O (Cbz-AGESGYE-NH2) ? Its log10(IC50) was 2.04

All values here come from ChEMBL document CHEMBL4145690.
